Target system: GDP-bound KRAS wild-type protein (Homo sapiens, UniProt P01116)
Sequence (P01116 whole entry): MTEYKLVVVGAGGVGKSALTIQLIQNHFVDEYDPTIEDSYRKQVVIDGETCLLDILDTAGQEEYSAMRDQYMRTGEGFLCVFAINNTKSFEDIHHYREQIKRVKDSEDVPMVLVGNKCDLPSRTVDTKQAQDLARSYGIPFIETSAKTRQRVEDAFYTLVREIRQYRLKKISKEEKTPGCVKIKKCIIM
Assay procedure: Binding to KRAS by surface plasmon resonance (SPR), Single Cycle Kinetics
Measurement context: SPR, Single Cycle Kinetics, 1:1 binding model; GDP-bound KRAS wild-type protein; read-out: KRAS KD
Please respond with 1.0 when measured Kd is strictly beneath 0.1 nM, and with 0.0 in all other cases.

Field: example entries. Status: answers known.
>>> answer_label("CCO[C@@H]1C[C@H]2C(=O)NC3(CCC3)C(=O)N(C)[C@@H](C(CC)CC)C(=O)N(C)[C@H](C(=O)N(C)CCOC)CC(=O)N(C)[C@@H](CC)C(=O)N[C@@H]([C@@H](C)CC)C(=O)N(C)CC(=O)N(C)[C@H]3C/C=C\\CCN(C3=O)[C@@H](Cc3ccc(C(F)(F)F)cc3)C(=O)N(C)CC(=O)N[C@@H](CCc3cc(F)c(C(F)(F)F)c(F)c3)C(=O)N2C1")
0.0
>>> answer_label("CCO[C@@H]1C[C@H]2C(=O)NC3(CCC3)C(=O)N(C)[C@@H](C3CCCC3)C(=O)N(C)[C@H](C(=O)N3CCCC3)CC(=O)N(C)[C@@H](CC(C)C)C(=O)N[C@@H]([C@@H](C)CC)C(=O)N(C)CC(=O)N(C)[C@H]3C/C=C\\CCN(C3=O)[C@@H](Cc3ccc(C(F)(F)F)cc3)C(=O)N(C)CC(=O)N[C@@H](CCc3cc(F)c(C(F)(F)F)c(F)c3)C(=O)N2C1")
0.0
>>> answer_label("CCO[C@@H]1C[C@H]2C(=O)NC3(CCC3)C(=O)N(C)[C@@H](C3CCCC3)C(=O)N(C)[C@H](C(=O)N3CCOCC3)CC(=O)N(C)[C@@H](CC(F)F)C(=O)N[C@@H]([C@@H](C)CC)C(=O)N(C)CC(=O)N(C)[C@H]3C/C=C\\CCN(C3=O)[C@@H](Cc3ccc(C(F)(F)F)cc3)C(=O)N(C)CC(=O)N[C@@H](CCc3cc(F)c(C(F)(F)F)c(F)c3)C(=O)N2C1")
0.0

Problem: Take the molecule CCO[C@@H]1C[C@H]2C(=O)NC3(CCC3)C(=O)N(C)[C@@H](C3CCCC3)C(=O)N(C)[C@H](C(=O)N(C)CC)CC(=O)N(C)[C@@H](CC(F)F)C(=O)N[C@@H]([C@@H](C)CC)C(=O)N(C)CC(=O)N(C)[C@H]3C/C=C\CCN(C3=O)[C@@H](Cc3ccc(C(F)(F)F)cc3)C(=O)N(C)CC(=O)N[C@@H](CCc3cc(F)c(C(F)(F)F)c(F)c3)C(=O)N2C1 and say whether its Kd is less than 0.1 nM.
Result: 1.0

Problem: Is the reported Kd for CCCOC[C@H]1C(=O)N[C@@H]([C@@H](C)CC)C(=O)N(C)CC(=O)N(C)[C@H]2C/C=C\CCN(C2=O)[C@@H](Cc2ccc(C(F)(F)F)cc2)C(=O)N(C)CC(=O)N[C@@H](CCc2cc(F)c(C(F)(F)F)c(F)c2)C(=O)N2C[C@H](OCC)C[C@H]2C(=O)NC2(CC(C)(C)C2)C(=O)N(C)[C@@H](C2CCCC2)C(=O)N(C)[C@H](C(=O)N(C)C)CC(=O)N1C strictly below 0.1 nM?
Result: 1.0

* * *

This listing pairs compounds with measured pKd.
Target system: GDP-bound KRAS wild-type protein (Homo sapiens, UniProt P01116)
Assay procedure: Binding to KRAS by surface plasmon resonance (SPR), Single Cycle Kinetics
Measurement context: SPR Single Cycle Kinetics, GDP-bound KRAS wild-type protein, 1:1 binding model; read-out: KRAS KD
*1 amine or outer side, *2 acyl side, *3 side chain or, on linkers, in order; H or OH if unused. Where a SMILES comes first, the peptide text is derived from it. Bridges are numbered along the chain shown (N, C = ends). [ ]: non-standard residue; d: D form. The star is where a group is joined. hPhe(3-Cl-4-CF3) = N[C@@H](CCc1ccc(C(F)(F)F)c(Cl)c1)C(=O)O; X27 = O=C([C@H](Cc1ccc(C(F)(F)F)cc1)N(CC1CC1)[*:1])[*:2]; NMeGly(cPent) = CN[C@H](C(=O)O)C1CCCC1; NMeD = CN[C@@H](CC(=O)O)C(=O)O; NMeL = CN[C@@H](CC(C)C)C(=O)O; Morpholide = C1CN(*)CCO1; NMeA = CN[C@@H](C)C(=O)O; Ac5c = NC1(C(=O)O)CCCC1; Aze = O=C(O)[C@@H]1CCN1; Sar = CNCC(=O)O
For clarity, pKd is expressed as the negative log10 of concentration in mol/L.

Here's what some known entries look like.
>>> readout_value("CCO[C@@H]1C[C@H]2C(=O)NC3(CCCC3)C(=O)N(C)[C@@H](C3CCCC3)C(=O)N(C)[C@H](C(=O)N3CCOCC3)CC(=O)N(C)[C@@H](CC(C)C)C(=O)N[C@@H]([C@@H](C)CC)C(=O)N(C)CC(=O)N(C)[C@H]3CCCCCN(C3=O)[C@@H](Cc3ccc(C(F)(F)F)cc3)C(=O)N(C)CC(=O)N[C@@H](CCc3cc(F)c(C(F)(F)F)c(F)c3)C(=O)N2C1")
8.92
>>> readout_value("CC[C@H](C)[C@@H]1NC(=O)[C@H](CC(C)C)N(C)C(=O)C[C@@H](C(=O)N2CCOCC2)N(C)C(=O)[C@H](C2CCCC2)N(C)C(=O)C2(CCCC2)NC(=O)[C@@H]2CCCN2C(=O)[C@H](CCc2ccc(C(F)(F)F)c(Cl)c2)NC(=O)CN(C)C(=O)[C@H](Cc2ccc(C(F)(F)F)cc2)N(CC2CC2)C(=O)[C@@H]2CCN2C(=O)[C@H](C)N(C)C1=O [PP0108] ([NMeL]I[NMeA][Aze][X27][Sar][hPhe(3-Cl-4-CF3)]P[Ac5c][NMeGly(cPent)][NMeD]-Morpholide; lactam N-11)")
9.70

Please examine the following record next.
Problem: Recall the recorded pKd for CCC(CC)[C@H]1C(=O)N(C)[C@H](C(=O)N2CCCCC2)CC(=O)N(C)[C@@H](COC)C(=O)N[C@@H]([C@@H](C)CC)C(=O)N(C)CC(=O)N(C)[C@H]2C/C=C\CCN(C2=O)[C@@H](Cc2ccc(C(F)(F)F)cc2)C(=O)N(C)CC(=O)N[C@@H](CCc2ccc(Cl)c(Cl)c2)C(=O)N2C[C@H](OC(C)C)C[C@H]2C(=O)NC2(CC(C)(C)C2)C(=O)N1C with GDP-bound KRAS wild-type protein (Homo sapiens, UniProt P01116) and state it.
Result: 8.62

* * *

Listed compounds paired with reported pKd
Target system: GDP-bound KRAS wild-type protein (Homo sapiens, UniProt P01116)
Assay procedure: Binding to KRAS by surface plasmon resonance (SPR), Single Cycle Kinetics
Measurement context: SPR Single Cycle Kinetics, GDP-bound KRAS wild-type protein, 1:1 binding model; read-out: KRAS KD
*1 amine or outer side, *2 acyl side, *3 side chain or, on linkers, in order; H or OH if unused. Where a SMILES comes first, the peptide text is derived from it. Bridges are numbered along the chain shown (N, C = ends). [ ]: non-standard residue; d: D form. hPhe(3,5-F2-4-CF3) = N[C@@H](CCc1cc(F)c(C(F)(F)F)c(F)c1)C(=O)O; NPrPhe(4-CF3) = CCCN[C@@H](Cc1ccc(C(F)(F)F)cc1)C(=O)O; NMeGly(cPent) = CN[C@H](C(=O)O)C1CCCC1; X11 = CCC[C@](C)(N[*:1])C(=O)[*:2]; NMeD = CN[C@@H](CC(=O)O)C(=O)O; NMeL = CN[C@@H](CC(C)C)C(=O)O; Sar = CNCC(=O)O
Please express pKd as -log10 of the molar concentration.

Problem: Which pKd reading was recorded for the compound CC[C@H](C)[C@@H]1NC(=O)[C@H](CC(C)C)N(C)C(=O)C[C@@H](C(=O)N2CCOCC2)N(C)C(=O)[C@H](C2CCCC2)NC(=O)C2(CCCC2)NC(=O)[C@@H]2CCCN2C(=O)[C@H](CCc2cc(F)c(C(F)(F)F)c(F)c2)NC(=O)CN(C)C(=O)[C@H](Cc2ccc(C(F)(F)F)cc2)N2CCCCC[C@@H](C2=O)N(C)C(=O)CN(C)C1=O ?
Result: 6.40

Problem: Could you share which pKd value was measured for CCCN1C(=O)CN(C)C(=O)CN(C)C(=O)[C@H]([C@@H](C)CC)NC(=O)[C@H](CC(C)C)N(C)C(=O)C[C@@H](C(=O)N(C)C)N(C)C(=O)[C@H](C2CCCC2)N(C)C(=O)[C@](C)(CCC)NC(=O)[C@@H]2CCCN2C(=O)[C@H](CCc2cc(F)c(C(F)(F)F)c(F)c2)NC(=O)CN(C)C(=O)[C@@H]1Cc1ccc(C(F)(F)F)cc1 [PP0737] ([NMeL]I[Sar][Sar][NPrPhe(4-CF3)][Sar][hPhe(3,5-F2-4-CF3)]P[X11][NMeGly(cPent)][NMeD]-NMe2; lactam N-11) ?
Result: 9.26

Problem: GET /values?readout=pKd&item= CCC[C@H]1C(=O)N[C@@H]([C@@H](C)CC)C(=O)N(C)CC(=O)N(C)[C@H]2C/C=C\CCN(C2=O)[C@@H](Cc2ccc(C(F)(F)F)cc2)C(=O)N(C)CC(=O)N[C@@H](CCc2cc(F)c3c(c2)CCC3)C(=O)N2C[C@H](OCC)C[C@H]2C(=O)NC2(CC(C)(C)C2)C(=O)N(C)[C@@H](C2CCCC2)C(=O)N(C)[C@H](C(=O)N(C)C)CC(=O)N1C
Result: 9.24
